For each of the variants below, state its protein stability index.
B1: RSAD1 (parent)
chain: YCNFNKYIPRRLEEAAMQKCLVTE

- Variants of: B1
- assay summary: protein stability index of a GFP-peptide fusion (GPS, HEK-293T) (PSI 1-6); higher = more stable;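 further: lentivirally expressed fusions sorted by FACS into six bins by GFP to DsRed ratio, PSI derived from sequencing read proportions per bin multiplied by bin number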
- experimental parameters: c terminus: a fixed tail appended
Form: value (number only, do not type unit).

Given the entry A16C , report its measured protein stability index.
3.34

What value of measured protein stability index is listed for Y7Q ?
1.8

// lookup protein stability index for Y1G
1.89

Report protein stability index for L21T please.
2.04

Any idea what protein stability index was measured for V22Y ?
1.41

Need protein stability index, item N3V
1.85

Sample F4V — what was its protein stability index?
3.15

Any idea what protein stability index was measured for R11Y ?
1.48

For the variant shown here, E14Q , give the reported protein stability index.
2.85

Please report the recorded protein stability index for A16H .
3.97

Reported protein stability index, variant Y1M : ____
2.32

Fill in: protein stability index of Y1N is ___
2.58

For the variant C20K , what protein stability index is on record?
2.11

// returns reported protein stability index for input A16D
2.54

Given M17V , state its recorded protein stability index.
2

// lookup protein stability index for T23N
2.85

Endpoint output: protein stability index of E24S . Value?
1.64

So what's the measured protein stability index for this one? E14K
1.58

Which protein stability index value belongs to E24K ?
2.46

Endpoint output: protein stability index of A16R . Value?
2.39

Record request: protein stability index value, item L21I
1.79

protein stability index for Y7T ?
2.22
